Entry source: paper PMC5075098

conditions: rat, microsomes
Starred links: 1 amine or outer side, 2 acyl side, 3 side chain; linkers in the order of their positions; H or OH if unused. Positions of bridges follow the written chain, without caps; N, C: chain ends. Non-standard residues stand in square brackets, D forms with d. Residues, ends and D or L forms follow the SMILES beside them. *: point of attachment. Orn(4R-OH,5R-OCH2CH2NMe3+) = C[N+](C)(C)CCO[C@@H](N[*:3])[C@H](O)C[C@H](N[*:1])C(=O)[*:2]; pTerphenylCO(4''-OnC5H11) = CCCCCOc1ccc(-c2ccc(-c3ccc(C(=O)*)cc3)cc2)cc1; hTyr(3S-OH,4S-OH) = N[C@H](C(=O)O)[C@H](O)[C@@H](O)c1ccc(O)cc1; Pro(3S-OH,4S-Me) = C[C@H]1CN[C@H](C(=O)O)[C@H]1O; Hyp = O=C(O)[C@@H]1C[C@@H](O)CN1
endpoint label: half-life (h)
Report only the number, with the unit h understood.

Record request: half-life value, item CCCCCOc1ccc(-c2ccc(-c3ccc(C(=O)N[C@H]4C[C@@H](O)[C@@H](OCC[N+](C)(C)C)NC(=O)[C@@H]5[C@@H](O)[C@@H](C)CN5C(=O)[C@H]([C@@H](C)O)NC(=O)[C@H]([C@H](O)[C@@H](O)c5ccc(O)cc5)NC(=O)[C@@H]5C[C@@H](O)CN5C(=O)[C@H]([C@@H](C)O)NC4=O)cc3)cc2)cc1 [CD101] ({pTerphenylCO(4''-OnC5H11)}-[Orn(4R-OH,5R-OCH2CH2NMe3+)]T[Hyp][hTyr(3S-OH,4S-OH)]T[Pro(3S-OH,4S-Me)]; lactam 1-C)
3.99

----------
assay: CYP450 inhibition in human liver microsomes; conditions: pH 7.4, IC50, human liver microsomes, midazolam substrate (2.5 μM), 0.03 to 30 μM, 5 min at 37°C, pH 7.4, LC-MS/MS, duplicate
Starred links: 1 amine or outer side, 2 acyl side, 3 side chain; linkers in the order of their positions; H or OH if unused. Positions of bridges follow the written chain, without caps; N, C: chain ends. Non-standard residues stand in square brackets, D forms with d. Residues, ends and D or L forms follow the SMILES beside them. *: point of attachment. Orn(4R-OH,5R-OCH2CH2NMe3+) = C[N+](C)(C)CCO[C@@H](N[*:3])[C@H](O)C[C@H](N[*:1])C(=O)[*:2]; pTerphenylCO(4''-OnC5H11) = CCCCCOc1ccc(-c2ccc(-c3ccc(C(=O)*)cc3)cc2)cc1; hTyr(3S-OH,4S-OH) = N[C@H](C(=O)O)[C@H](O)[C@@H](O)c1ccc(O)cc1; Pro(3S-OH,4S-Me) = C[C@H]1CN[C@H](C(=O)O)[C@H]1O; Hyp = O=C(O)[C@@H]1C[C@@H](O)CN1
endpoint label: IC50
I'd appreciate it if you wrote the number followed by its unit.

What measured IC50 goes with CCCCCOc1ccc(-c2ccc(-c3ccc(C(=O)N[C@H]4C[C@@H](O)[C@@H](OCC[N+](C)(C)C)NC(=O)[C@@H]5[C@@H](O)[C@@H](C)CN5C(=O)[C@H]([C@@H](C)O)NC(=O)[C@H]([C@H](O)[C@@H](O)c5ccc(O)cc5)NC(=O)[C@@H]5C[C@@H](O)CN5C(=O)[C@H]([C@@H](C)O)NC4=O)cc3)cc2)cc1 [CD101] ({pTerphenylCO(4''-OnC5H11)}-[Orn(4R-OH,5R-OCH2CH2NMe3+)]T[Hyp][hTyr(3S-OH,4S-OH)]T[Pro(3S-OH,4S-Me)]; lactam 1-C) ?
29 µM
